Hello, the source for this data is paper PMC2756588, in case you need it.

Target: T1, Sla1-2, P32790
T1 sequence (P32790 60-140, looked up): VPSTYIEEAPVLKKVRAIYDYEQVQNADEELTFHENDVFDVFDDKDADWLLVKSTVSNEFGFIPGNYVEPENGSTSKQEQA
Test: SPOT array
Conditions: median of control spots 712
PARAMETER: SPOT intensity

| BINDER | PARAMETER | RECORDED VALUE |
| --- | --- | --- |
| PPPPPPPPPPPLPQS | SPOT intensity | 0 |
| QFDLKMPSKPIHNLK | SPOT intensity | 2 |
| SKSRLLIELPEGFFT | SPOT intensity | 0 |

[1] VNIPSPSSSPPPIPK
[2] NSMRPPLLIPAATTK
[in] Would you let me know which has the greater SPOT intensity value, 1 or 2 ? Selection: enter the item's label.
[out] 2

[P] FYHRPAPKPPVTKKV
[Q] PVLPPPRSPNRPTLS
[R] QRIRKIPGIPLMSVG
[in] Falling order of SPOT intensity, please. // rank by listing labels in the order requested
[out] Q, R, P

[P] NRPAIRIPSLKKPAL
[Q] RVTRKRPREPKSTND
[in] Would you let me know which has the greater SPOT intensity value, P or Q ? Selection: enter the item's label.
[out] Q
(Q: 2, P: 0)
